Affinity Kd values by entry
TARGET_ENTITY: 14-3-3γ (Homo sapiens, UniProt P61981)
Construct: made in house; host or cells: E. coli NiCo21 (DE3)
Sequence (P61981 whole entry): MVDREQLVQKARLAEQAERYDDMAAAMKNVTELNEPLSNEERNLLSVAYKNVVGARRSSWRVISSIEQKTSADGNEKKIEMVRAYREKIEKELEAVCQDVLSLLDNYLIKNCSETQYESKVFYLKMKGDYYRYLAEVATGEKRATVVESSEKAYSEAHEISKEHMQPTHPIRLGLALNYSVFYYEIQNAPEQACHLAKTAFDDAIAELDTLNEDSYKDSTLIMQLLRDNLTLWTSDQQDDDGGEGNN
TEST_METHOD_NOTES: Fluorescence anisotropy (FA) binary binding study: 14-3-3 titrated to fluorescein-labelled peptide
STUDY_CONDITIONS: Table S4, point-mutated peptides; FA, 10 nM FITC-labelled peptide; replicate 1
Where a SMILES comes first, the peptide text is derived from it. [ ]: non-standard residue; d: D form. ξ: configuration not given here. Phe(4-NO2) = N[C@@H](Cc1ccc([N+](=O)[O-])cc1)C(=O)O; ξAla(4-thiazolyl) = NC(Cc1cscn1)C(=O)O; pS = N[C@@H](COP(=O)(O)O)C(=O)O; β3hS = N[C@@H](CO)CC(=O)O; Nva = CCC[C@H](N)C(=O)O; ξβ3hS = NC(CO)CC(=O)O; βAla = NCCC(=O)O
The response must be a number in nM with no trailing unit.

COMPOUND	READOUT_UNITS	Affinity Kd
CCC[C@H](NC(=O)[C@H](N)CCCCN)C(=O)N[C@@H](Cc1ccc([N+](=O)[O-])cc1)C(=O)NC(Cc1cscn1)C(=O)N[C@@H](COP(=O)(O)O)C(=O)N[C@@H](Cc1ccc([N+](=O)[O-])cc1)C(=O)NC(CO)CC(=O)NCCC(=O)N[C@@H](Cc1ccc([N+](=O)[O-])cc1)C(=O)N[C@@H](CCCCN)C(N)=O (stereo partly drawn) [compound 1] (H-[dK][Nva][Phe(4-NO2)][ξAla(4-thiazolyl)][pS][Phe(4-NO2)][ξβ3hS][βAla][Phe(4-NO2)]K-NH2)	nM	52

Please look at the following compound next.
Identify Affinity Kd associated with the compound CCC[C@H](NC(=O)[C@H](N)CCCCN)C(=O)N[C@@H](Cc1ccc([N+](=O)[O-])cc1)C(=O)NC(Cc1cscn1)C(=O)N[C@@H](COP(=O)(O)O)C(=O)N[C@@H](Cc1ccc([N+](=O)[O-])cc1)C(=O)N[C@@H](CO)CC(=O)NCCC(=O)N[C@@H](Cc1ccccc1)C(=O)N[C@@H](CCCCN)C(N)=O (stereo partly drawn) [5b] (H-[dK][Nva][Phe(4-NO2)][ξAla(4-thiazolyl)][pS][Phe(4-NO2)][β3hS][βAla]FK-NH2; N-terminus and C-terminus assumed)
1300
